Listed here: items and their measured Ca ion level-increasing activity (FLIPR, 40 s).
Target: human OT7T175 (metastin receptor) (human, UniProt Q969F8 1-398)
Sequence (Q969F8 whole entry L364H): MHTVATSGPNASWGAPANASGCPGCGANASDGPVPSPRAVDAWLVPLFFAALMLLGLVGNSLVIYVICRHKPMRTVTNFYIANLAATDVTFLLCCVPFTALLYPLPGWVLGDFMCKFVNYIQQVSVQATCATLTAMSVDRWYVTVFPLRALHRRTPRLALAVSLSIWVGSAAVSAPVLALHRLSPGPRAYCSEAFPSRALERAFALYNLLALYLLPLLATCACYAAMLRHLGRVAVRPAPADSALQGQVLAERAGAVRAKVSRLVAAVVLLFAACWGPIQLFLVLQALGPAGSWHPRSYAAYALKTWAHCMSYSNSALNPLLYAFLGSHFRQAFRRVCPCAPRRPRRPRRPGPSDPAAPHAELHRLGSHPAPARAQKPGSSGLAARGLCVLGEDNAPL
Test: cell-based or functional assay
Non-standard residues stand in square brackets, D forms with d. No end group written: not given here. Arg(Me) = CNC(=N)NCCC[C@H](N)C(=O)O; Abu = CC[C@H](N)C(=O)O; azaGly = NNC(=O)O
value.kind: Ca ion level-increasing activity (FLIPR, 40 s) (EC50/MS10 EC50)

>>> quantitative_readout("YN[dW]NSFGLRF-NH2 [[D-Trp3]MS10]")
1.6
>>> quantitative_readout("[dY]NWNSFGL[Arg(Me)]W-NH2 (N-terminus assumed; SMILES CNC(=N)NCCC[C@H](NC(=O)[C@H](CC(C)C)NC(=O)CNC(=O)[C@H](Cc1ccccc1)NC(=O)[C@H](CO)NC(=O)[C@H](CC(N)=O)NC(=O)[C@H](Cc1c[nH]c2ccccc12)NC(=O)[C@H](CC(N)=O)NC(=O)[C@H](N)Cc1ccc(O)cc1)C(=O)N[C@@H](Cc1c[nH]c2ccccc12)C(N)=O, also called Compound No. 174) [[D-Tyr1,Arg(Me)9,Trp10]MS10]")
2.3
>>> quantitative_readout("[dY]SNSF[azaGly]L[Arg(Me)]F-NH2 (also called Compound No. 239) [des(1)-[D-Tyr2,Ser3,AzaGly7,Arg(Me)9]MS10]")
6.7
>>> quantitative_readout("YNWNSFG[Abu]RF-NH2 (N-terminus assumed; SMILES CC[C@H](NC(=O)CNC(=O)[C@H](Cc1ccccc1)NC(=O)[C@H](CO)NC(=O)[C@H](CC(N)=O)NC(=O)[C@H](Cc1c[nH]c2ccccc12)NC(=O)[C@H](CC(N)=O)NC(=O)[C@@H](N)Cc1ccc(O)cc1)C(=O)N[C@@H](CCCNC(=N)N)C(=O)N[C@@H](Cc1ccccc1)C(N)=O, also called Compound No. 187) [[Abu8]MS10]")
1.9
>>> quantitative_readout("[dY][dN]WNTF[azaGly]L[Arg(Me)]F-NH2 (N-terminus assumed; SMILES CNC(=N)NCCC[C@H](NC(=O)[C@H](CC(C)C)NC(=O)NNC(=O)[C@H](Cc1ccccc1)NC(=O)[C@@H](NC(=O)[C@H](CC(N)=O)NC(=O)[C@H](Cc1c[nH]c2ccccc12)NC(=O)[C@@H](CC(N)=O)NC(=O)[C@H](N)Cc1ccc(O)cc1)[C@@H](C)O)C(=O)N[C@@H](Cc1ccccc1)C(N)=O, also called Compound No. 298) [[D-Tyr1,D-Asn2,Thr5,AzaGly7,Arg(Me)9]MS10]")
1.8

Origin of the recorded values: patent US20090298765A1
